test: Inhibition of ABCB1 in human K562/A02 cells assessed as potentiation of adriamycin-induced cytotoxicity by measuring ADR IC50 treated for 48 hrs followed by compound washout measured after 24 hrs by MTT assay (Rvb = 51.34 +/- 5.1 uM)
Below, each entry is listed alongside its reported pIC50.
The meaning of pIC50 here: minus log10 of the concentration in molar units.

- Smiles entry: "COc1cc2c(cc1OC)CN(CCn1cc(COc3ccccc3C(=O)Nc3ccc(C(C)(C)C)cc3)nn1)CC2"
  Property name: "pIC50"
  Recorded measurement: 4.76

Please look up its pIC50: "COc1cc2c(cc1OC)CN(CCc1ccc(NC(=O)c3cc(OC)c(OC)cc3NC(=O)c3cnc4ccccc4c3)cc1)CC2" 4.84

====

target: ATP-dependent translocase ABCB1 (Homo sapiens, UniProt P08183); assay: Inhibition of ABCB1 in human K562/A02 cells assessed as potentiation of adriamycin-induced cytotoxicity by measuring ADR IC50 at 5 uM measured after 48 hrs by MTT assay (Rvb = 43.75 to 96.91 uM)
Sequence (P08183 whole entry): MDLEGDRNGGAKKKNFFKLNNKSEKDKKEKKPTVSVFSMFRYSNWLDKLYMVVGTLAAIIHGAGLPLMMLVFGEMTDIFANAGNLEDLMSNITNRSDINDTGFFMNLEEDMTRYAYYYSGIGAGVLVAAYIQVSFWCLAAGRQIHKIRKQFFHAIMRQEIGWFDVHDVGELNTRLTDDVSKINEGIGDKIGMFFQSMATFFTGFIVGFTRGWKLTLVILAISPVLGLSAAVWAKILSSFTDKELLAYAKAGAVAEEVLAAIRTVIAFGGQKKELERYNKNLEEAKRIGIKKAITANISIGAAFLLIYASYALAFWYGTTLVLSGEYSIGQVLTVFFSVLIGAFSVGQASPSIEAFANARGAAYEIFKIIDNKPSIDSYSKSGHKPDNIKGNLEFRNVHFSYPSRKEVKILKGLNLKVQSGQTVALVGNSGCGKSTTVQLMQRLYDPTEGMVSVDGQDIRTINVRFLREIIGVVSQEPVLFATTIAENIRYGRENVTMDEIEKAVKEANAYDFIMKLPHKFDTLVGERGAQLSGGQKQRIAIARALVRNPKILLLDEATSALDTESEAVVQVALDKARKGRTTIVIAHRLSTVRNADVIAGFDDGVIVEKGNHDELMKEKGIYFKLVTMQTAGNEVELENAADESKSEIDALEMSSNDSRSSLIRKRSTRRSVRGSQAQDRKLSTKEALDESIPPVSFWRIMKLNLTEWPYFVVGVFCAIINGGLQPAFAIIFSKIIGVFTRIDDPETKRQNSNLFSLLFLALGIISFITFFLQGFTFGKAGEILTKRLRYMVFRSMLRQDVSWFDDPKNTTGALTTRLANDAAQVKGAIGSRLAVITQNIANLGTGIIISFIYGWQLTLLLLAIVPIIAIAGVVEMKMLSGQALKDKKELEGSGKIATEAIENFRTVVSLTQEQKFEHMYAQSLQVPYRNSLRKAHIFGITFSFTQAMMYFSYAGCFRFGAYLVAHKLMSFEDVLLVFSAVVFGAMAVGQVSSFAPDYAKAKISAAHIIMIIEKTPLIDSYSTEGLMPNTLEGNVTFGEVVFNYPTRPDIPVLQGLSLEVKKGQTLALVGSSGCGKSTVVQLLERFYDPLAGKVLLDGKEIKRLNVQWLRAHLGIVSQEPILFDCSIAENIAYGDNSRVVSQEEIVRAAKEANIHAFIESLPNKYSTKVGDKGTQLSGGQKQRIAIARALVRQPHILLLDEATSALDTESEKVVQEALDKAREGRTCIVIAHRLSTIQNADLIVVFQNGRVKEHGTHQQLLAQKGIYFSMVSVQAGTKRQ
Below, each entry is listed alongside its reported pIC50.
The meaning of pIC50 here: minus log10 of the concentration in molar units.

- Smiles entry: "COc1cc2c(cc1OC)CN(CCn1cc(COc3ccccc3C(=O)Nc3ccc(C(C)(C)C)cc3)nn1)CC2"
  pIC50: 5.90

Now for another entry.
Please look up its pIC50: "COc1cccc(NC(=O)c2ccccc2OCc2cn(CCN3CCc4cc(OC)c(OC)cc4C3)nn2)c1" 5.06

====

experiment: Inhibition of ABCB1 in human K562/A02 cells assessed as potentiation of adriamycin-induced cytotoxicity by measuring ADR IC50 at 0.25 uM measured after 48 hrs by MTT assay (Rvb = 43.75 uM)
Property name: pIC50
The meaning of pIC50 here: minus log10 of the concentration in molar units.

Please look up its pIC50: "COc1cc2c(cc1OC)CN(CCn1cc(COc3ccccc3C(=O)Nc3ccc(C(C)(C)C)cc3)nn1)CC2" 4.74

====

test: Inhibition of ABCB1 in human K562/A02 cells assessed as potentiation of adriamycin-induced cytotoxicity measured after 48 hrs by MTT assay
Property name: pEC50
The meaning of pEC50 here: minus log10 of the concentration in molar units.

Please look up its pEC50: "COc1cc2c(cc1OC)CN(CCn1cc(COc3ccccc3C(=O)Nc3ccc(C(C)(C)C)cc3)nn1)CC2" 6.59

====

assay: Inhibition of ABCB1 in human K562/A02 cells assessed as potentiation of adriamycin-induced cytotoxicity by measuring ADR IC50 at 0.1 uM measured after 48 hrs by MTT assay (Rvb = 43.75 uM)
Property name: IC50 (µM)
Please state the figure in µM; there is no need to write the unit.

Please look up its IC50: "COc1cc2c(cc1OC)CN(CCn1cc(COc3ccccc3C(=O)Nc3ccc(C(C)(C)C)cc3)nn1)CC2" 34.9

====

assay: Inhibition of ABCB1 in human K562/A02 cells assessed as potentiation of adriamycin-induced cytotoxicity by measuring ADR IC50 at 2.5 uM measured after 48 hrs by MTT assay (Rvb = 43.75 uM)
Property name: pIC50
The meaning of pIC50 here: minus log10 of the concentration in molar units.

Please look up its pIC50: "COc1cc2c(cc1OC)CN(CCn1cc(COc3ccccc3C(=O)Nc3ccc(C(C)(C)C)cc3)nn1)CC2" 5.48
